B1: PRPH (parent)
chain: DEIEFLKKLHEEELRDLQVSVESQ

Variants of: B1
ASSAY_NAME: protein stability index of a GFP-peptide fusion (GPS, HEK-293T) (PSI 1-6); higher = more stable;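 further: lentivirally expressed fusions sorted by FACS into six bins by GFP to DsRed ratio, PSI derived from sequencing read proportions per bin multiplied by bin number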
DETAILS: c terminus: a fixed tail appended
Label No if protein stability index falls below 5; label Yes in every other case.

The following variants have reported results that may help.
INSERT INTO measurements (mutant, discrete_label) VALUES
  ('Q18R', 'No'),
  ('L14V', 'Yes'),
  ('L14C', 'Yes'),
  ('H10E', 'Yes'),
  ('E12K', 'No'),
  ('L9G', 'Yes'),
  ('L9F', 'No'),
  ('I3D', 'Yes'),
  ('E12S', 'No'),
  ('K7V', 'No');

Does the reported protein stability index for E12R fall at or above the 5 mark?
No

Does the reported protein stability index for E12Q fall at or above the 5 mark?
No

Does the reported protein stability index for H10D fall at or above the 5 mark?
Yes

Does the reported protein stability index for H10A fall at or above the 5 mark?
No
